# credit: ChEMBL document CHEMBL1208750

Reported Activity values are given for each entry in this list.
System: Aedes aegypti
Test Protocol: Larvicidal activity against mosquito larvae at 0.05 mg/L
Type: functional
Expressed in %, but write only the number.

Here is how some compounds turned out for Activity.
| Smiles Structure | Activity / % |
| --- | --- |
| N#C/C(=N\OCc1ccccc1)c1ccc(NC(=O)NC(=O)c2c(F)cccc2F)cc1 | 0 |
| O=C(NC(=O)c1c(F)cccc1F)Nc1ccc(CO/N=C(/c2ccc(Cl)cc2)C2CC2)cc1 | 100 |

Ask: Given C/C(=N\OC(C)C)c1ccc(NC(=O)NC(=O)c2c(F)cccc2F)cc1 , state its recorded Activity.
Reply: 90

Ask: Try this compound next: CC(C)C(=O)O/N=C/c1ccc(NC(=O)NC(=O)c2c(F)cccc2F)cc1
Reply: 10

Ask: Try this compound next: CC(C)O/N=C(\C#N)c1ccc(NC(=O)NC(=O)c2c(F)cccc2F)cc1
Reply: 50

Ask: Try this compound next: Cc1cc(C)cc(C(=O)O/N=C/c2ccc(NC(=O)NC(=O)c3c(F)cccc3F)cc2)c1
Reply: 90
